The measurements presented in this section are drawn from patent US8293769B2.

# System Name: cKIT (Homo sapiens)
# Construct: The kinase domain of cKIT was assayed in 50 mM Hepes; purchased Upstate 14-559
# Sequence (P10721 589-937 limits assumed): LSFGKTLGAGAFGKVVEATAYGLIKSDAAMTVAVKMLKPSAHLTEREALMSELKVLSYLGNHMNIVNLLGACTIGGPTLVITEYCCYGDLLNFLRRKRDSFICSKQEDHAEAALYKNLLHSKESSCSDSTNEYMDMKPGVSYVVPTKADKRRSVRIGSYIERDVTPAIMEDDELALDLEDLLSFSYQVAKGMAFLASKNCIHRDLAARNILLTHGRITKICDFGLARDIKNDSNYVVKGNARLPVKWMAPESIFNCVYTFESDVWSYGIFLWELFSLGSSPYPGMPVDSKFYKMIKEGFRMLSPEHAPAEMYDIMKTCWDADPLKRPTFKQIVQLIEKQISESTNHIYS
# Test Protocol: cKIT kinase in vitro biochemical assay (alphascreen)
# Measurement Parameters: tested at about 1 μM; read-out: CKIT percent inhibition
Experimental Endpoint: inhibition at 1 µM (%)

Below are worked cases with known answers.
# Structure Smiles, inhibition at 1 µM / %
measured = [
    ("CNC(=O)c1cncc(Oc2ccc3nc(NCC4CCCCC4)sc3c2)n1", 32),
    ("O[C@@H]1CCCC[C@H]1Nc1nc2ccc(Oc3ccnc(-c4cccnc4)n3)cc2s1", 20),
]

P: Nc1cc(Oc2ccc3nc(NCC4CCCCC4)sc3c2)ncn1
Q: Cn1cc(-c2cc(Oc3ccc4nc(N[C@@H]5CCCC[C@H]5O)sc4c3)cnc2-c2cnn(C)c2)cn1
R: C[C@H](Nc1nc2ccc(Oc3ccnc(-c4cnn(C)c4)n3)cc2s1)C1CCCCC1
Thanks in advance: please rank these 3 entries by inhibition at 1 µM, highest to lowest. // format: requested-order list of labels
P, R, Q

1: CN1CCN(c2ccc(-c3cc(Oc4ccc5nc(N[C@@H]6CCCC[C@H]6O)sc5c4)cnc3-c3ccc(N4CCN(C)CC4)nc3)cn2)CC1
2: O[C@@H]1CCCC[C@H]1Nc1nc2ccc(Oc3cncc(-c4cn[nH]c4)c3)cc2s1
Rank 1 against 2 by their inhibition at 1 µM values and give the higher one. Please identify the chosen entry by its label.
2
(2: 84%, 1: 16%)
